For each record, write down the corresponding growth.
# System: SK-MEL-5 melanoma
# MEASUREMENT_NOTES: NCI-60 one-dose screen, 48 h (100 = growth as untreated, 0 = no growth, -100 = all killed)
# COND: 10 µM unless noted
# Procedure: Growth inhibition of the SK-MEL-5 human tumor cell line is measured as a screen for anti-cancer activity. Cells are grown in 96 well plates and exposed to the test compound for 48 hours. Compounds are tested at a single concentration, which is 10^-5 M for most compounds. The reported endpoint is percent growth (GI% or GIPRCNT), where numbers from 0 - 100% represent growth inhibition, and numbers from -100% - 0 represent cell death. For example, a value of 40 represents 60% growth inhibition. […]
This is part of a sample that, as a whole, favours compounds with a hit. Of some 83,000 tested, about 20% had one in any assay.
Return type: number; implicit unit %.

Q) Field: growth (SK-MEL-5 melanoma). Entry: `C[C@@H]1CN(c2cnc(C(=O)Nc3cc(F)cc4cccnc34)cn2)C[C@H](C)N1`
A) 102

Q) Can you look up growth on SK-MEL-5 melanoma for `C[C@@H]1NC(=O)[C@H](Cc2ccccc2)N(Cc2cccnc2)C1=O` ?
A) 101

Q) SK-MEL-5 melanoma / growth / `COc1ccc(-c2nc3c(c(-c4ccc(Cl)cc4)nn3-c3ccccc3)c(-c3ccccc3)c2C#N)cc1` : value?
A) 100

Q) Any idea what growth came out for `N#C/C(=C\c1ccc(-c2cccc(Cl)c2)o1)C(=O)Nc1ncc(Cc2ccc(Cl)cc2)s1` on SK-MEL-5 melanoma?
A) 89.9

Q) SK-MEL-5 melanoma / growth / COc1ccc(C(c2cc(OC)c(OC)c(OC)c2)N2CCCCC2)cc1 (centres undefined) : value?
A) 29.5

Q) Request body: readout growth, system SK-MEL-5 melanoma, query `O=C(Cc1ccc(/C=C/C(=O)c2ncc[nH]2)cc1)Nc1cc(F)c(F)c(F)c1` . Return the value.
A) 97.7

Q) Give SK-MEL-5 melanoma growth for COc1ccc2c(c1)CC[C@@H]1[C@@H]2CC[C@]2(C)C3C(=CC(COC(C)=O)C4C(=O)N(c5ccc(Cl)cc5)C(=O)C43)C[C@@H]12 (some centres undefined)
A) 93.4

Q) Lab note: need growth for `O=C1C(Cl)=C(Nc2ccccc2)C(=O)c2ccccc21` on SK-MEL-5 melanoma, anyone have it?
A) -85.3

Q) State its growth on SK-MEL-5 melanoma: `Oc1c(CN2CCC(N3CCOCC3)CC2)cc(Cc2cc(CN3CCC(N4CCOCC4)CC3)c(O)c3ncccc23)c2cccnc12`
A) 8.31

---

Hi there, I'd appreciate the recorded growth for every entry that follows.
# System: SK-OV-3 ovarian
# MEASUREMENT_NOTES: NCI-60 one-dose screen, 48 h (100 = growth as untreated, 0 = no growth, -100 = all killed)
# COND: 10 µM unless noted
Compounds without any hit were thinned out: in the full panel of roughly 83,000, 20% have a hit.
Enter your answer as a number in %; do not include the unit.

Q) Recall the recorded growth for `CC1(C)N=C(N)N=C(N)N1c1cc(Cl)ccc1Cl` with SK-OV-3 ovarian and state it.
A) 97.2

Q) SK-OV-3 ovarian / growth / `Cn1cc(-c2csc(-c3cn(C)c4ccccc34)n2)c2cnccc21` : value?
A) 105

Q) Test system SK-OV-3 ovarian; read-out growth; what value for `Nc1c(Br)cc2c(c1Br)Cc1cc([N+](=O)[O-])ccc1-2` ?
A) 92.2

Q) State its growth on SK-OV-3 ovarian: `CN(C)c1ccc(/C=C2\C=C(c3nc4ccccc4s3)OC2=O)cc1`
A) 86.8

Q) For the record `C=CCn1cc(-c2nc3ccccc3s2)c2cc(-c3ccc4c5c(cccc35)C(=O)N(CCO)C4=O)ccc21` , what value of growth is listed for SK-OV-3 ovarian?
A) 107

Q) Checklist item: growth tested on SK-OV-3 ovarian, entry CC1(/C=C/c2ccc(-c3ccccc3)cc2)CCn2cnc3ncnc(c32)N1O (stereo not given) , value?
A) 19.8

Q) Record `Cc1cc(O)cc(-c2nn(C)cc2-c2cc(N3CCOCC3)nc(-c3cccnc3)n2)c1` : what is its growth with SK-OV-3 ovarian?
A) 38.5

Q) // lookup growth | system=SK-OV-3 ovarian | key= `COc1cc(Cc2cc(-c3ccccc3)nn(Cc3ccccc3)c2=O)cc(OC)c1OC`
A) 82.3

Q) What reported growth corresponds to `CN(C)CCC(CCN(C)C)(C(=O)O)c1ccccc1` on SK-OV-3 ovarian?
A) 102

Q) Form entry - test system: SK-OV-3 ovarian; read-out: growth; molecule: COC1/C=C/OC2(C)Oc3c(C)c(O)c4c(O)c(c(/C=N/N(c5ccccc5)c5ccccc5)c(O)c4c3C2=O)NC(=O)C(C)=C/C=C/C(C)C(O)C(C)C(O)C(C)C(OC(C)=O)C1C (stereo not given)
A) 84.8

Q) API: value(readout= growth, system= SK-OV-3 ovarian, query= `O=c1oc2c(cc1-c1ccccc1)c[n+]([O-])c1ccccc21` )
A) 104

Q) Find the measured growth: item `COc1cc(C[C@H]2COc3cc(O)cc(O)c3C2=O)ccc1O` , target or system SK-OV-3 ovarian.
A) 29.2

Q) API: value(readout= growth, system= SK-OV-3 ovarian, query= `CC(C)(C)c1ccc(C(=O)N/N=C/c2ccc(O)cc2O)cc1` )
A) 23.2

Q) Checklist item: growth tested on SK-OV-3 ovarian, entry `COc1cc(/C=C/C(=O)c2cccc(-n3cc(-c4ccc(Cl)cc4)[nH]c3=O)c2)ccc1O` , value?
A) 97.9

Q) Lab note: need growth for `COc1ccc(/C=N/NC(=O)Cn2c(-c3ccc(S(C)(=O)=O)cc3)nc3ccccc32)cc1` on SK-OV-3 ovarian, anyone have it?
A) 117

Q) Any idea what growth came out for `C#Cc1cccc(Nc2ncnc3cc(NC(=O)CCl)ccc23)c1` on SK-OV-3 ovarian?
A) -0.177

Q) Please state recorded growth (tested on SK-OV-3 ovarian) of C#CCOc1cccc(Nc2ncnc3c2ncn3C2CCN(C(=O)CCl)C2)c1 (stereo not given)
A) 48.4

Q) Notebook entry, SK-OV-3 ovarian assay: growth of O=C(O)CC(C(=O)O)/C(=C\c1ccccc1)c1ccccc1 (stereo not given) = ?
A) 97.4

Q) API: value(readout= growth, system= SK-OV-3 ovarian, query= `CCOC(=O)c1nnn(Cc2cc(=O)oc3ccc(O)cc23)c1C` )
A) 105

Q) Please provide the recorded growth for `CS(=O)(=O)Nc1cc(-c2ccc3ncnc(Nc4ccc(F)c(Cl)c4)c3c2)ccc1Cl` , tested on SK-OV-3 ovarian.
A) 17.7

---

Assign growth to each entry below.
# System: SK-MEL-5 melanoma
# MEASUREMENT_NOTES: NCI-60 one-dose screen, 48 h (100 = growth as untreated, 0 = no growth, -100 = all killed)
# COND: 10 µM unless noted
The panel holds about 83,000 compounds, 20% with a hit somewhere; the sample as a whole holds those more often. Calls of active or inactive are those of the source. How the source made its calls: active means growth percent below 10; inactive means the rest.

Q) // growth lookup, key: `COC(=O)/C=C1/SC(=NCc2ccccc2)N(CCc2c[nH]c3ccccc23)C1=O`
A) 87.6% (inactive)

Q) Looking for the measured growth of `Nc1c(C(=O)Nc2cccc3ncccc23)sc2nc3c(cc12)CN(Cc1ccccc1)CC3` , can you help?
A) 19.2% (inactive)

Q) Which value of growth has been reported for `COc1cc(C=C2C(=O)NC(=S)NC2=O)cc(CN2CCCC2)c1O` in the records?
A) 111% (inactive)

Q) For the compound shown here, `Cc1sc2nc(NCCN)[nH]c(=O)c2c1C` , give the reported growth.
A) 96% (inactive)

Q) // returns reported growth for input `Cc1ccc2c(c1)sc1nc(-c3c[nH]c4ccccc34)c(Nc3ccccc3)n12`
A) 113% (inactive)

Q) What value of growth has been recorded for this entry: `CCOC(=O)C/C(=N\Nc1cc(=O)[nH]c2ccc(C)cc12)C(=O)OCC`
A) 96.8% (inactive)

---

# System: SK-MEL-2 melanoma
# MEASUREMENT_NOTES: NCI-60 one-dose screen, 48 h
# COND: 10 µM unless noted
Compounds without any hit were thinned out: in the full panel of roughly 83,000, 20% have a hit. Calls of active or inactive are those of the source. How the source made its calls: active means growth percent below 10; inactive means the rest.
Log the outcome using a class from active, inactive

Q) What is the recorded call for this molecule in the test? `CN(C)c1ccc(CNCCO)cc1`
A) inactive

Q) Record request — test call for OC1CSSC1Cn1cnc2c(Nc3ccc(OCc4cccc(F)c4)c(Cl)c3)ncnc21 (stereo unspecified)
A) active

Q) Record lookup: outcome of this test for COc1ccc(C2C3=C(COC3=O)N(CCO)c3cc4c(cc32)OCO4)cc1OC (stereo unspecified) ?
A) inactive

Q) What classification did `Cc1c(O)cc(-c2cnc(N/N=C/c3ccccc3)s2)c(O)c1C` end up with in this test?
A) inactive

Q) Can you look up the reported call for `CCSc1ccnc(N)n1` for me?
A) inactive

Q) Call for entry `O=[N+]([O-])c1ccccc1Nc1ccc2ccccc2c1` :
A) inactive

Q) // outcome(item) with item = CC12OC(CC(O)C1O)n1c3ccccc3c3c4c(c5c6ccccc6n2c5c31)C(=O)N(CCN1CCCC1)C4=O (stereo unspecified)
A) inactive

Q) Which outcome did this test record for the molecule CCOC(=O)c1cnn(CC(C)O)c1NC(=O)NCc1ccccc1C(F)(F)F (stereo unspecified) ?
A) inactive

Q) Dear all, I need the recorded test outcome for `COc1cc(-c2nccc3[nH]c(-c4cccc5[nH]ccc45)nc23)cc(OC)c1OC` , thank you.
A) inactive

Q) Tell me the assay call for CCNC(=O)N1CCc2c(Br)c3c(c(OC)c2C1Cc1ccc(OC)cc1)OCO3 (stereo unspecified) please.
A) inactive

Q) Test call, this molecule: `CCOc1ncc([N+](=O)[O-])c(OCC)n1`
A) inactive
